# TARGET DESC: T1, CD73 on the surface of human tumor cells (human, UniProt P21589 27-549)
# T1 chain: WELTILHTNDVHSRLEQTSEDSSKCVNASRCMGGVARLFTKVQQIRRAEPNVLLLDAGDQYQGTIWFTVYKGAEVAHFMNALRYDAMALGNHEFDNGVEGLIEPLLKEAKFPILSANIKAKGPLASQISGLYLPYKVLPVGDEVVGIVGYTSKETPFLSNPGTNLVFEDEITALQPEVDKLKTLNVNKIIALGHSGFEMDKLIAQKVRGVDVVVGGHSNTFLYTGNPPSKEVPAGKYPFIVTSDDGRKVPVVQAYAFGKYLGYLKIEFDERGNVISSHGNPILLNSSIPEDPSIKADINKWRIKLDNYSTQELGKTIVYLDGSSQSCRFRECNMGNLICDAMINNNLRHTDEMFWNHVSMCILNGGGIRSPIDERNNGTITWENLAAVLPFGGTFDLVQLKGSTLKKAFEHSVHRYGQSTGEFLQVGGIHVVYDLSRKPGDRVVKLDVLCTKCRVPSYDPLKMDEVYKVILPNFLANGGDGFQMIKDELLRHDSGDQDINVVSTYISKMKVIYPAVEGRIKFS
# TEST DETAILS: inhibition of cell-surface CD73 enzyme activity; left panel
RESULT TYPE: pIC50
# reply with the number alone; pIC50 is -log10 of concentration in mol/L

BINDER	TEST RESULT
Hu002c-7 (antibody, V domains shown) VH: QVQLVQSGAEVKKPGASVKVSCKASGYTLTSYWMHWVRQAPGQGLEWIGEINPSQGRSNYNEKFKSRVTLTVDRSTSTVYMELSSLRSEDTAVYYCARRGVSGNYFDYWGQGTLVTVSS VL: DIQMTQSPSSLSASVGDRVTITCKASQDINTYLSWFQQKPGKSPKSLIYRSNILVSGVPSRFSGSGSGQDYTLTISSLQPEDFATYYCLQYDEFPYTFGGGTKLEIK	9.55

Ask: What measured pIC50 goes with Hu002c-8 (antibody, V domains shown) VH: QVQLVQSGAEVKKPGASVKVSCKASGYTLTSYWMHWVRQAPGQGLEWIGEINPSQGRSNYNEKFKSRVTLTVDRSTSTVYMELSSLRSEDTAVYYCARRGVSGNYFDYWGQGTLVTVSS VL: DIQMTQSPSSLSASVGDRVTITCKASQDINTYLSWFQQKPGKSPKSLIYRSNILVSGVPSRFSGSGSGQDYTLTISSLQPEDFAIYYCLQYDEFPYTFGGGTKLEI ?
Result: 9.65

Ask: Bench note: what pIC50 did Hu002c-6 (antibody, V domains shown) VH: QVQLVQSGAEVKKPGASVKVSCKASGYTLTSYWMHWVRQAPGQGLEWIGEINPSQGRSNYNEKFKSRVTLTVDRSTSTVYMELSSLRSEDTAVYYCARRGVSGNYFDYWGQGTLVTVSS VL: DIQMTQSPSSLSASVGDRVTITCKASQDINTYLSWFQQKPGKAPKSLIYRSNILVSGVPSRFSGSGSGQDYTLTISSLQPEDFATYYCLQYDEFPYTFGQGTKLEIK show?
Result: 9.39
